system: Escherichia coli; details: Concentration 32 ug.mL-1;; ASSAY_TEST Inhibition of Bacterial Growth; detection method Absorption (OD600); MEDIA CAMHB; plate type 384well; NBS; CORNING #3640; time 18 hr
Description: Antibacterial activity against Escherichia coli ATCC 25922 (CO-ADD:GN_001); MIC in CAMBH media using NBS plates, by OD(600)
Results with a measured potency or affinity are listed apart.
Inhibition for assorted compounds
A number alone suffices; assume %.

>>> print(df.to_string())
                            substancesmiles        measuredon  resultvalue
0  COc1ccc(NC(=O)Cn2nc3ccc(Sc4ccccc4)nn3c2=O)cc1  Escherichia coli       -10.85
1  CCOC(=O)c1ccc(NC(=O)Cn2nc3c4sc(N5CCCC5)nc4ncn3c2=O)cc1  Escherichia coli       -11.73

Req: Please report the recorded Inhibition for Cc1ccc(-c2cc3c4nn(CC(=O)NC5CCCC5)c(=O)n4ccn3n2)cc1C .
Resp: -0.5

Req: Given the compound CCOc1ccc(C(=O)CSc2nnc3c(=O)n(-c4ccc(OCC)cc4)ccn23)cc1 , what is its reported Inhibition?
Resp: 1.24

Req: Requested read-out: Inhibition. Entry: COc1ccc(NC(=O)Cn2nc3ccc(SC(C)(C)C)nn3c2=O)cc1OC
Resp: 2.49

Req: Please report the recorded Inhibition for CCc1nnc2c(SCC(=O)Nc3ccc(C(=O)OC)cc3)nc3ccccc3n12 .
Resp: -1.9

Req: GET /values?readout=Inhibition&item= N#CCSc1nnc2c(=O)n(-c3ccc(Br)cc3)ccn12
Resp: -0.38

Req: Need Inhibition of Cc1ccccc1Oc1nc2ccccc2n2c(=O)n(CC(=O)NCc3ccc4c(c3)OCO4)nc12 , thanks.
Resp: 0.04

Req: Given the entry Cc1cc2nn(CC(=O)Nc3cc(F)ccc3C)c(=O)n2c(Nc2ccc(F)c(C)c2)n1 , report its measured Inhibition.
Resp: -0.59

Req: So what's the measured Inhibition for this one? Cc1cc(C)cc(N(Cc2ccc(F)cc2)S(=O)(=O)c2cccn3c(C)nnc23)c1
Resp: -9.2

Req: I would be grateful if you could share the reported Inhibition for COc1cccc(-n2ccn3c(SCc4cccc(Cl)c4)nnc3c2=O)c1 .
Resp: -0.34

Req: # Inhibition lookup, item O=C(Cn1nc2c3cc(-c4ccccc4)nn3ccn2c1=O)N1CCN(c2ccccc2F)CC1
Resp: -0.58

Req: Data request, read-out Inhibition, for O=C(Cn1nc2c(N3CCOCC3)nccn2c1=O)NCc1cccc(C(F)(F)F)c1
Resp: -1.74

----------
Here, each record is paired with measured Inhibition data.
test system: Escherichia coli; conditions: Concentration 32 ug.mL-1;; ASSAY_TEST Inhibition of Bacterial Growth; detection method Absorption (OD600); MEDIA CAMHB; plate type 384well; NBS; CORNING #3640; time 18 hr
Results with a measured potency or affinity are listed apart.
Note: unit % is implicit; provide only the numeric part.

>>> df
                            substancesmiles        measuredon  resultvalue
0  CCOc1ccc(C(=O)Cn2nc3n(CCC(C)C)c(=O)c4sccc4n3c2=O)cc1  Escherichia coli         3.25
1  O=S(=O)(c1cccn2cnnc12)N(Cc1ccc(F)cc1)c1ccc(F)cc1  Escherichia coli        -3.31

Attention now shifts to the item below.
Req: I'd like to know its Inhibition. The molecule in question is Cc1cc(C)cc(N(Cc2ccc(F)cc2)S(=O)(=O)c2cccn3cnnc23)c1
Resp: -5.96
